target: Aβ(1–42) (Homo sapiens, UniProt P05067); construct: Aβ(1–42), N-terminally biotinylated Aβ(1–42) and FITC-Aβ(1–42) were purchased from Bachem; purchased Bachem (Heidelberg, Germany); experiment: Thioflavin T (ThT) fibril formation assay; assay type: biochemical; conditions: 20 μM Aβ(1–42), 20 μM peptide (method: 31 μg/ml), 20 μM ThT, 10 mM sodium phosphate pH 7.4, 37°C, compared after 5 h with Aβ(1–42)-only control
Sequence (P05067 672-713 limits assumed): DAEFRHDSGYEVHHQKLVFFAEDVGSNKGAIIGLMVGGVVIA
Examples of sequences with documented inhibition of Aβ(1–42) fibril formation (ThT fluorescence) follow.

So what does the record say about inhibition of Aβ(1–42) fibril formation (ThT fluorescence) for RPRTRLHTHRNR [D3, 12mer all-D-enantiomeric peptide selected via mirror image phage display, C-terminally amidated] ?
30%

So what does the record say about inhibition of Aβ(1–42) fibril formation (ThT fluorescence) for RPITRLHTDRNR [DB1, all-D D3 derivative, C-terminally amidated] ?
63%

Report inhibition of Aβ(1–42) fibril formation (ThT fluorescence) for RPITTLQTHQNR [DB2, all-D D3 derivative, C-terminally amidated] please.
49%

# next sequence below
Item RPITRLQTHEQR [DB5, all-D D3 derivative, C-terminally amidated] has what recorded inhibition of Aβ(1–42) fibril formation (ThT fluorescence)?
76%
